Reference for the values: patent US12318452B2

- target-of-assay: Wee1 (Homo sapiens, UniProt P30291)
- Sequence (P30291 whole entry): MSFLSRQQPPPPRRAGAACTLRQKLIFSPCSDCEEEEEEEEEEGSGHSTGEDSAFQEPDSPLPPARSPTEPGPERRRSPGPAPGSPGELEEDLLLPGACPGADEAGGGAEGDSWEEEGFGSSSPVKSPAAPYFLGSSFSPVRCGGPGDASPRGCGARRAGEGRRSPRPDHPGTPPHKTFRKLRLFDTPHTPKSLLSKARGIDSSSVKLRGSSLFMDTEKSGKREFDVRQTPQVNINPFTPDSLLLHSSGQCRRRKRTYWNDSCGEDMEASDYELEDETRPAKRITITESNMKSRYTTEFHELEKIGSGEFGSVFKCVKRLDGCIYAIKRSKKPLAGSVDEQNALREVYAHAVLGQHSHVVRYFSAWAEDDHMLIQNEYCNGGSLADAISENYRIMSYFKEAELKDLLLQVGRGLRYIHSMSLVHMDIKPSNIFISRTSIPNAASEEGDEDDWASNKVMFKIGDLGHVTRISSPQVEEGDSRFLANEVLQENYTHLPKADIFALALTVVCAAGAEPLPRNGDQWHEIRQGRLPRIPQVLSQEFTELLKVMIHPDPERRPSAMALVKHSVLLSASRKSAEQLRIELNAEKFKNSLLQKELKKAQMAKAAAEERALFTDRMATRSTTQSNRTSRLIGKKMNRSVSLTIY
- assay-explanation: Cellular degradation of Wee1 by immunoblot, 6-hour treatment of MOLT4 cells
- Assay type: cell-based
- Set-up: endogenous in cells; host or cells: MOLT4 (wild type; CRBN-/- as control)
- condition-set: MOLT-4, 1 μM, MOLT4 cells, approximated by immunoblot, read-out: Extent of Degradation of Wee1
value-kind: percent Wee1 degradation at 1 µM

### Prompt Param item = C=CCn1c(=O)c2cnc(Nc3ccc(N4CCN(CCCNc5cccc6c5C(=O)N(C5CCC(=O)NC5=O)C6=O)CC4)cc3)nc2n1-c1cccc(C(F)(F)F)n1 (stereo not drawn) ; retrieve measured percent Wee1 degradation at 1 µM.
### Response > 50%

### Prompt Please look up its percent Wee1 degradation at 1 µM: C=CCn1c(=O)c2cnc(Nc3ccc(N4CCN(CCCCCC(=O)N[C@H](C(=O)N5C[C@H](O)C[C@H]5C(=O)N[C@@H](C)c5ccc(-c6scnc6C)cc5)C(C)(C)C)CC4)cc3)nc2n1-c1cccc(C(C)(C)O)n1
### Response < 25%

Now look at this entry.
### Prompt Record request: percent Wee1 degradation at 1 µM value, item C=CCn1c(=O)c2cnc(Nc3ccc(N4CCN(C(=O)CCOCCNc5cccc6c5C(=O)N(C5CCC(=O)NC5=O)C6=O)CC4)cc3)nc2n1-c1cccc(C(C)(C)O)n1 (stereo not drawn)
### Response > 50%
